System: SR leukemia
Assay: NCI-60 one-dose screen, 48 h (100 = growth as untreated, 0 = no growth, -100 = all killed)
Settings: 10 µM
About 83,000 compounds went through this panel and 20% of them were active in at least one assay; those are over-represented in the sample as a whole.
Measured growth values are reported for all entries that follow.
readoutKind: growth (%)

* COc1cc(-c2cc(/C=C3\C(=O)Nc4ccc(Cl)cc43)[nH]n2)cc(OC)c1OC | 20.4
* O=C(CC(NC(=O)OCc1ccccc1)C(=O)OCc1ccccc1)OCc1ccccc1 (stereo unspecified) | 99.3
* CCN1Cc2c(/C=C/c3ccccc3)nc3ccc(OC)cc3c2N(c2cccc(Cl)c2)C1 | 11.7
* CCCCC(CCCCCC(CCCC)NCc1ccc2c(c1)OCO2)NCc1ccc2c(c1)OCO2 (stereo unspecified) | -64.8
* COc1ccc(Cl)cc1-n1nnc(-c2nc3ccccc3[nH]2)c1N | 71.8
* CCN(CC)Cc1cc(Nc2ccnc3cc(Cl)ccc23)ccc1OC | 83.2
* CN(C)CCN=c1nc2c(c(N)n1-c1ccccc1)c(=S)n(-c1ccccc1)c(=S)n2-c1ccccc1 | 34.7
* CCOC(=O)N1C/C(=C/c2ccc(Cl)cc2)C(=O)/C(=C/c2ccc(Cl)cc2)C1 | -5.62
* CCCCCC(=O)c1ccc(OCCCN2CCN(C(=O)OCC)CC2)cc1 | 84.4
* CCOC(=O)N1C/C(=C/c2ccc(F)cc2)C(=O)/C(=C/c2ccc(F)cc2)C1 | -19.9
* O=C(CSSCC(=O)c1ccc(Cl)cc1)c1ccc(Cl)cc1 | 18.7
* N=c1nc(N)ncn1-c1ccccc1 | 97.4
* Nc1ccccc1NC(=O)CCCCC(=O)Nc1ccc2c(c1)/C(=C/c1ccc[nH]1)C(=O)N2 | 62.7
* CCCCC/C=C/C(=O)CCc1ccc(O)c(OC)c1 | 53.4
* COc1ccc(OC)c(/C=C/c2nc(SC)n(-c3ccc(Cl)cc3)n2)c1 | 41.5
* O=C1/C(=C/c2ccc([N+](=O)[O-])s2)Oc2ccccc21 | 7.01
* O=c1[nH]c(-c2ccc(Cl)cc2)nc2sc3c(c12)CCCC3 | 0.705
* COc1ccc(C(=O)/C=C/c2cc(-c3cc(OC)c(OC)c(OC)c3)n[nH]2)cc1 | -39.7
* COc1cc2cc3c(nc2cc1OC)CCN3Cc1ccc(NC(=O)Nc2cc(C(F)(F)F)cc(C(F)(F)F)c2)cc1 | 55.2
* Cc1ccc(NC(=O)Nc2nc3ccccc3s2)cc1NC(=O)Nc1nc2ccccc2s1 | 55.5
* COc1ccc(-c2nn(-c3cccc(NC(=O)Nc4cccc(C(F)(F)F)c4)c3)cc2-c2ccncc2)cc1Cl | 4.34
* COc1ccc(-c2nc3ncccn3c2-c2nnc(-c3ccc(F)cc3)o2)cc1 | 108
* CCN(CC)CCC(=O)Nc1cccc2c1C(=O)c1c(c(O)c3ccccc3c1O)C2=O | 6.44
* O=C(CCCCC(=O)Nc1ccc2c(c1)/C(=C/c1ccc[nH]1)C(=O)N2)NO | 45.4
* Cc1ccc2oc3nc(C)c(C(=O)NCc4ccccc4)cc3c(=O)c2c1 | 79.9
* COc1ccc2c(c1)C(=O)c1c-2c(OCCN(C)C)nc2ccccc12 | 1.16
* CC1(C)OC2=C(CC1Br)C(=O)C(=O)c1ccccc12 (stereo unspecified) | 15.9
* CCOC1(OCC)OC(c2ccccc2)=C(C#N)C(/C=C\c2ccccc2)C1(OCC)OCC (stereo unspecified) | 52.8
* O=C(Nc1cccc(-n2cc(-c3ccncc3)c(-c3cc(O)cc(Cl)c3)n2)c1)c1ccc(N2CCOCC2)c(C(F)(F)F)c1 | -12.4
* CC(=O)[C@H]1CC[C@H]2[C@@H]3CCC4=CC(=O)C=C[C@]4(C)[C@H]3CC[C@]12C | 84.4
* Clc1ccc(Nc2ccnc(NCCNc3ccnc4cc(Cl)ccc34)n2)cc1 | -22.3
* ClC(Cl)(Cl)c1nc2nccnc2[nH]1 | 102
* COc1ccc2c(c1)sc1nc(-c3ccccc3)c(-c3ccc(O)c(OC)c3)n12 | 17.2
* CCN(CC)CCNc1ccc(CO)c2oc3cc(Cl)ccc3c(=O)c12 | 50.1
* CN(C)Cc1cn(-c2ncc(-c3ccc(C(F)(F)F)cc3)c(NC3CCCCCC3)n2)nn1 | 39.6
* CC(C)=CCc1ccc(O)c(=O)cc1C(C)C | 5.25
* Nc1c(C(=O)Nc2cccc3ccccc23)sc2nc3c(cc12)C(=O)CCC3 | 4.39
* COc1ccc(Nc2ncnc3c2c(SC)nn3-c2ccccc2)cc1 | 84.2
* c1ccc(CSc2nnc3c4c5c(sc4nc(-c4cccnc4)n23)CCCCCC5)cc1 | 46.5
* Cc1cccc(C)c1NC(=O)c1sc2nc3c(cc2c1N)C(=O)CCC3 | 69.1
* C#Cc1ccc(-n2c(/C=C/c3ccc4ccccc4n3)nc3ncccc3c2=O)cc1 | -17.9
